target: HIV-1 protease (Human immunodeficiency virus type 1 group M subtype B, UniProt P04585); test: biochemical; details: Ki, NaCl 1 M; 50 mM sodium formate pH 4.25, 2.5 mM DTT; 1/V vs [I]
Where a SMILES comes first, the peptide text is derived from it.
Assign pKi to each entry below.
By convention, pKi is the negative base-10 log of a molar concentration.

stdin: Recorded pKi for N[C@@H](CCC(=O)O)C(=O)N[C@@H](CC(=O)O)C(=O)N[C@@H](Cc1ccccc1)C(=O)O [Peptide 12, Glu--Asp--Phe] (H-Glu-Asp-Phe-OH) , please?
stdout: 3.39

stdin: Recorded pKi for CC(C)C[C@H](NC(=O)[C@@H](N)CC(=O)O)C(=O)N[C@@H](C)C(=O)N[C@@H](Cc1ccccc1)C(=O)O [Peptide 6, Asp--Leu--Ala--Phe] (H-DLAF-OH) , please?
stdout: 2.49

----------
target: HIV-1 protease (Human immunodeficiency virus type 1 group M subtype B); assay: biochemical; conditions: Ki, 50 mM sodium formate pH 4.25, 2.5 mM DTT, substrate I 390 μM, 25° C.; peptides 1, 2, 4 from apparent Km vs [I], others from 1/V vs [I]
Where no end group is shown, it is not given here.
measured_metric: pKi
By convention, pKi is the negative base-10 log of a molar concentration.

stdin: Recorded pKi for GEDLAF [Peptide 2, Gly--Glu--Asp--Leu--Ala--Phe] , please?
stdout: 4.19

stdin: Recorded pKi for FLRQNLAF [Peptide 18, Phe--Leu--Arg--Gln--Asn--Leu--Ala--Phe] , please?
stdout: 2.70

----------
Assign Ki to each entry below.
target: HIV-1 protease (Human immunodeficiency virus type 1 group M subtype B); assay: biochemical
Where a SMILES comes first, the peptide text is derived from it.

stdin: Recorded Ki for N[C@@H](CCC(=O)O)C(=O)O [Peptide 16, Glutamic acid, reference compound] , please?
stdout: > 50 mM

stdin: Recorded Ki for N[C@@H](CC(=O)O)C(=O)O [Peptide 17, Aspartic acid, reference compound] , please?
stdout: > 50 mM

stdin: Recorded Ki for N[C@@H](CC(=O)O)C(=O)N[C@@H](CC(=O)O)C(=O)O [Peptide 13, Asp--Asp] (H-Asp-Asp-OH) , please?
stdout: 0.97 mM

----------
Assign Ki to each entry below.
biological target: HIV-1 protease (Human immunodeficiency virus type 1 group M subtype B, UniProt P04585); construct: HIV-1 protease activity was measured at 25° C. using substrate I; assay: biochemical; conditions: 1M NaCl, 50 mM sodium formate, pH 4.0, 2.5 mM DTT, 25° C.
Where a SMILES comes first, the peptide text is derived from it.
The answer is to be given in mM; state only the numeric part.

stdin: Recorded Ki for CC(C)C[C@H](NC(=O)[C@@H](N)CC(=O)O)C(=O)N[C@@H](C)C(=O)N[C@@H](Cc1ccccc1)C(=O)O [Peptide 6, Asp--Leu--Ala--Phe] (H-DLAF-OH) , please?
stdout: 3.26

stdin: Recorded Ki for N[C@@H](CCC(=O)O)C(=O)N[C@@H](CC(=O)O)C(=O)N[C@@H](Cc1ccccc1)C(=O)O [Peptide 12, Glu--Asp--Phe] (H-Glu-Asp-Phe-OH) , please?
stdout: 0.41
